Quick list: apparent KD of MS2 coat protein per entry.
system: MS2 coat protein; assay: apparent KD of MS2 coat protein; higher = weaker reporter binding; conditions: Eterna round: R107; input ligand: theophylline 2 mM
READOUT: apparent KD of MS2 coat protein (nM)

# SEQ, READOUT, MEAS VALUE
data = [
    ("AGGUACGGAAUCCUCAUGUAGUCGUACCAACGAGGACCGGUACGGCCGCCACUCGAAUAAACAUGAGGAUCACCCAUGUAAUAAU [T''-M-T'-T-MS2]", "apparent KD of MS2 coat protein", 90.1),
    ("UGUCAGCGAAAGUUGACAUGUCUUACCGGUCGAGGACCGGUACGGCCGCCACUCGAUCACUCGCACAUGAGGAUCACCCAUGUCG [SS Tryp A #20]", "apparent KD of MS2 coat protein", 13.9),
    ("GCGGGACUUUCGGCCGCCACUGAGAGAGUCGUGUGAACAUGAGGAUCACCCAUGUAAUAUAUAUACAGGACCGGGAGGGUUGCGC [4.Q]", "apparent KD of MS2 coat protein", 14.7),
    ("AAGACGGUCGGAAGGAGCGGUACAUGAGGAUCACCCAUGUACUCCUGGGCAUCCGUAGUGUGCCAGGUAGGUCGCCGAUUGCGGG [XArg-B14]", "apparent KD of MS2 coat protein", 16.6),
    ("UCCAUCGGCGGAAGCCGAUGGUUUACAGAAGGAGCGUGGAUUAACACAGGUAGGUCGCUGGACAUGAGGAUCACCCAUGUGAUAG [SSAA #6]", "apparent KD of MS2 coat protein", 60.4),
    ("UGUACCAUGUCGGCCGCCACUCAUGAUAAAUAUGAGGAUCACCCAUAUAGCGUCAAAGACGCUAUGAGGACCGGGACAUGGUACU [TryBS Zipper 2]", "apparent KD of MS2 coat protein", 50.4),
]

* * *

test system: MS2 coat protein; assay: apparent KD of MS2 coat protein; designed switch direction (-1 OFF switch, 1 ON switch): -1; higher = weaker reporter binding; conditions: input ligand: FMN 200 uM
Assign class by apparent KD of MS2 coat protein: not lower than 50 nM means Fulfilled; lower than 50 nM means Not fulfilled.

# SEQ, CLASS
records = [
    ("UUAAUUAAUUGCGCAAGAUCACAUGAGGAUCACCCAUGUAUAUAGGAUAUCAGCUCGAUUAGAGCUGAGAAGGAUAUACAGCGC [ExNG3/3-A1] (Eterna round: R96, puzzle: Exclusion NG 3)", "Fulfilled"),
    ("GGAUCACAUGUCAGGAUAUGCAGGUCCUUGGAUCUGCAGAAGGGACAUGAGGAUCACCCAUGUCAUGAAGAUCC [Mat - Exclusion 4 - Eli Mod - D51] (Eterna round: R97, puzzle: Brourd's mod of Exclusion 4)", "Fulfilled"),
    ("GUCAGGAAAGGAUAUACAAGUAGUCACUCUCUUUGCAGUUCACAUGAGGAUCACCCAUGUAGAAGGUUCGGACG [EX2 C.9] (Eterna round: R97, puzzle: Exclusion 2)", "Not fulfilled"),
    ("CCCAUGUCAGGAUAUUAAUUGAGCAGAAAGCCCUGUUCACUUGAGAAGGGACAUGAGGAUCACCCAUGUAAAAC [Belexeedte] (Eterna round: R97, puzzle: Exclusion 4)", "Not fulfilled"),
    ("UACAUGAGGAUCACCCAUGUUUUGUCGUGUAUGGUAUUUAUCUAGGAUAUCAUUUUAUUGAGUUAUGAGAAGGAGAAUAUUAAU [JMF's solution 91] (Eterna round: R96, puzzle: Exclusion NG 3)", "Not fulfilled"),
    ("CUAAAUCAUGUAGGAUAUGCGUGGCGAAGCUAUGCAGAAGGACAUGAGGAUCACCCAUGUUCUUCCGUCUGCGUACAGACGGAA [JL ENG1 1.18] (Eterna round: R96, puzzle: Exclusion NG 1)", "Fulfilled"),
    ("UAUUAGCAAGCGAGAUCCCACAUGAGGAUCACCCAUGUGCUCGUCUUAUAUAAGGUACUGUACGAAAGUACGGUACC [Sensor 3, v1 - 91 v6] (Eterna round: R97, puzzle: Sensor, turn-off variant 1)", "Not fulfilled"),
    ("GCCUCACUUGAGGAUCACCCAAGUCAGGAUAUUUGAAAGCAAGCCUAAAACACGCGUAAAAGAAGGGACUUGAA [Armare] (Eterna round: R97, puzzle: Exclusion 1)", "Not fulfilled"),
    ("GAUCAGUAAGGAUAUACAUGAGGAUCACCCAUGUGGAUGGCCGCGCAUUUCCAUUCAGGUAGAAGGUACUGAGU [Eternabot (L1) Solution 94] (Eterna round: R97, puzzle: Exclusion 3)", "Fulfilled"),
]

* * *

test system: K4 kissing-loop RNA reporter; assay: apparent KD of K4 kissing-loop reporter; higher = weaker reporter binding; conditions: Eterna round: R107; input ligand: arginine 13.2 mM;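 further: bound reporter read as fluorescence of individual clusters on recovered sequencing chips by microscopy, with normalized cluster intensities fitted with a binding model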
READOUT: apparent KD of K4 kissing-loop reporter (nM)

# SEQ, MEAS VALUE
data = [
    ("CUGGGUUGACGAAAAGUCAACAAACGAGAAGGAGCGCACGAAAGUGCAGGUAGGUCGCUCAGUCCAGUGAUGUUGGAACAUCCAG [#SwitchBubble 8 #K4Late]", 498),
    ("AAAUAAAGCAGUCACCCAGUGAUGUUGGAAGGAGCGUGCGAAAGCACAGGUAGGUCGCCGAUAAAGGACAAAGUCCGUGGCUGCA [#SwitchBubble 29 #K4Early]", 350),
    ("UUAGAAGUAUACUUCAAGAGCUAUACUGAUACCAGAGUCAAUUGACUCCCUUGGCAGCGGAUCGAGUGAUGUUCGUAAGCUCAUU [AK4 SS Theophylline A]", 456),
    ("UGAUACCAGGCGGCCGCCACUCCCGCAGGUCAAAGACCUGCGAAGCUGGUUCUUCAGUGAUGUUGGAGGACCGGGCCUGGUAUCU [FiskerMod 25 - Jieux - Exclusion - Tryptophan B]", 211),
    ("GGAUUUGAGUGAUGUUUAAAACGAGUGUCCAAGGAUAUUGCCCAAACAAGAAGGUGGGCAUGCUUUUGCGAUAAUCAACGGAGAC [theeternabot_exclusion_KL_FMN_A_9]", 666),
    ("CUUGUACAUGCCGAGGUAGGUGCGGGUUAGCGAGGACCGGUACGGCCGCCACUCGCCAAGUGAUGUUUGGUCCUUUGGGUCGGCA", 507),
    ("GCAACUCUCAGUGAUGUUGAGUUAUCGGAAGGAGCGCGUGAAAACGCAGGUAGGUCGCCGAUACAAUGAGUUUCUCGUUGGUUGC [Arginine A K4 21]", 489),
    ("UUGAUAUGAUAAUAUCCUGUUUGAUAAAGACAGGAUAUAGAAAAUACUAGAAGGGUCAUUAUAUGCAGUGAUGUUGCAAAUAAGU [Exclusion FMN A Gf 23]", 67.3),
    ("GUAGGAUGAGGAGGAGGAUGAAUUACUGAAGGAGCGCAUAUUUUUGCAGGUAGGUCGCGGUAAAGAAGUAUAGUGAUGUUAUAUA [SSArgA.J]", 434),
    ("CAACCCUGCUUUUUCGAGUUUUAGGGAUGACGAGGACCGGUACGGCCGCCACUCGACUACACUGUUCAGUGAUGUUGAACGGCGG [Teveza]", 60),
    ("AUAAACUUGCAGUGAUGUUGCAAGUGAGACUAGGAUAUCAGGAAGCUGAGAAGGAGUCAUCUCCUUCAAACAUCACUAUGAAGGA [whbob_SS_FMNA__2th178]", 287),
    ("ACACUUUACGUAGGAUAUGCGACGAGUGAUGUUCGUCAGGCGGCUCUAGAUUAAACAAGCCGCCUAGCAGAAGGACGGGCAGUGU [Teaanso]", 145),
]

* * *

system: MS2 coat protein; assay: apparent KD of MS2 coat protein; designed switch direction (-1 OFF switch, 1 ON switch): 1; higher = weaker reporter binding; conditions: input ligand: FMN 200 uM
Assign class by apparent KD of MS2 coat protein: not lower than 70 nM means class 1; lower than 70 nM means class 0.

# SEQ, CLASS
rows = [
    ("CUGAGCAAUCGAGGAUAUCACGUCGUUUAGACGUGAGAAGGCGAUCAUAACAUGAGGAUCACCCAUGUAUUACAUGAAGCUCAG [SSNG1/4-A3] (Eterna round: R96, puzzle: Same State NG 1)", "class 0"),
    ("GAGCCAGUCCGAGGAUAUUCAUAUUAACAUGAGGAUCACCCAUGUAGGCUCAGAAAGGAGCCUUGGGAGAAGGCGGACUGGCUC [Xeonanisa<<2] (Eterna round: R96, puzzle: Same State NG 2)", "class 0"),
    ("GGUGCCAAUAAAGCCUACAUGAGGAUCACCCAUGUAUGUAGGUAGGAUAUCGUUUGCUUUGCAAACGAGAAGGGCCUAGGCACC [JL SSNG3 1.20] (Eterna round: R96, puzzle: Same State NG 3)", "class 0"),
    ("GCUAGAAAUAAAGCCAACAUGAGGAUCACCCAUGUAUGUUGGUAGGAUAUCGUUUGCAAAGCAAACGAGAAGGGCCAAACUAGC [Mat - Same State NG 3 - JL Mod - D20] (Eterna round: R96, puzzle: Same State NG 3)", "class 1"),
    ("GGAGCCAAGGCAGGAUAUUCAUAUUAAAACAUGAGGAUCACCCAUGUAAAGGCCAGAAGGCCUUGGGAGAAGGGCCAUGGCUCG [Xeonanis - 13 mod1] (Eterna round: R96, puzzle: Same State NG 2)", "class 0"),
    ("UGAAUAGUGAUAGGAUAUACAUGAGGAAUCCUCGUAGAAGGAUCAUAACAUGAGGAUCACCCAUGUAGCGCUCAGAAGAGCGCA [Mat - Same State NG 1 - JL mod - D54] (Eterna round: R96, puzzle: Same State NG 1)", "class 0"),
    ("CAAGGGUACGGAUUAGUACAUGAGGAUCACCCAUGUAUCCGACAGGAUAUCAUGUAAGAAGCCAGUGAGAAGGGUCUAGUCCAA [Eternabot solution 43] (Eterna round: R96, puzzle: Same State NG 3)", "class 1"),
    ("GCCGCGUUUCGCGCCUACAUGAGGAUCACCCAUGUUUGUUGGCAGGAUAUCGUCCGCUCUGCGGGCGAGAAGGGCUGUUGUGGU [salish99_SSNG3_R04_025] (Eterna round: R96, puzzle: Same State NG 3)", "class 0"),
]
